attributeMeasured: melting point

Item: CN(c1cccc2cc(C3=NCC(CCN4C(=O)CCC4=O)S3)[nH]c12)S(=O)(=O)c1cccs1 (centres unmarked) | melting point: 189 to 191 °C

Item: CN(c1cc(OCCCS(C)(=O)=O)cc2cc(C3=NCC(CN4CC[S+]([O-])CC4)S3)[nH]c12)S(=O)(=O)c1ccccn1 (centres unmarked) | melting point: 107 to 110 °C

Item: CCOC(=O)CC1CN=C(c2cc3c(C)ccc(N(C)S(=O)(=O)c4cccs4)c3[nH]2)S1 (centres unmarked) | melting point: 109 to 110 °C

Item: CN(c1cccc2cc(C3=NCC(CN4CC[S+]([O-])CC4)S3)[nH]c12)S(=O)(=O)c1ccccn1 (centres unmarked) | melting point: 193 to 194 °C

Item: CN(c1cccc2cc(C3=NCC(CN4CCS(=O)(=O)CC4)S3)[nH]c12)S(=O)(=O)c1ccccn1 (centres unmarked) | melting point: 188 to 189 °C

Item: Cc1ccc(N(C)S(=O)(=O)c2cccs2)c2[nH]c(C3=NCC(CC(N)=O)S3)cc12 (centres unmarked) | melting point: 120 to 121 °C

More entries:
Item: COc1ccccc1S(=O)(=O)N(C)c1cccc2cc(C3=NCC(CC(=O)Nc4nnc[nH]4)S3)[nH]c12 (centres unmarked) | melting point: 208 to 209 °C

Item: NC(=O)CC1CN=C(c2cc3cccc(NS(=O)(=O)c4cccs4)c3[nH]2)S1 (centres unmarked) | melting point: 130 to 131 °C

Item: CC(=O)CC1CN=C(c2cc3cccc(N(C)S(=O)(=O)c4cccs4)c3[nH]2)S1 (centres unmarked) | melting point: 123 to 124 °C

Item: CN(c1cccc2cc(C3=NCC(CC(=O)O)S3)[nH]c12)S(=O)(=O)c1ccccc1C(F)(F)F (centres unmarked) | melting point: 170 to 172 °C
